Recorded values, source PubChem BioAssay (NCI).

- Test system: SK-MEL-2 melanoma
- assay comment: NCI tumour cell line growth inhibition, 48 h
Listed next: entries and their corresponding TGI.

{"molecule": "CC(=O)/C(=C\\c1ccc(Cl)cc1)c1ccccc1", "result": "> 100 µM"}
{"molecule": "COC(=O)C(=O)C(C(=O)C(=O)Nc1ccc(Cl)c(Cl)c1)c1nc2ccc(C(=O)c3ccccc3)cc2[nH]c1=O (configuration not stated)", "result": "> 100 µM"}
{"molecule": "C=C(CO)C(=O)OC1CC(=C)C2CC(O)C(C)C2C2OC(=O)C(=C)C12 (configuration not stated)", "result": "32 µM"}
{"molecule": "N#CC(C(=O)CCCC(=O)Nc1ccccc1[N+](=O)[O-])c1c(Cl)cccc1Cl (configuration not stated)", "result": "> 100 µM"}
{"molecule": "O=C([CH-]C(=O)c1ccccc1)c1ccccc1.O=C([CH-]C(=O)c1ccccc1)c1ccccc1.O=C([CH-]C(=O)c1ccccc1)c1ccccc1.[Ga+3]", "result": "> 100 µM"}
{"molecule": "Cc1cn2cc(-c3cccs3)nc2s1", "result": "> 100 µM"}

Here's the next entry for you.
Quickly give me recorded TGI for C[C@@H]1C(=O)CC2C(C)(C)CCC[C@]2(C)[C@@]12CC[C@]1(C=COC1)O2 (some centres not stated)
44.3 µM
